- run_description: Cell Viability - LYMP1-002 - Assay at 40 hr (AID 994); further: nearly all actives have a fitted effect of over 60% in size
- condition_context: LYMP1-002 lymphoblastoid cell viability; series mostly up to 92.2 µM
- Text: NIH Chemical Genomics Center [NCGC] NIH Molecular Libraries Screening Centers Network [MLSCN] National Institutes of Environmental Health Sciences [NIEHS] National Toxicology Program [NTP] We have developed a 1536-well cell-based assay for quantitative high throughput screening (qHTS) against a number of cell lines to determine in vitro cytotoxicity of small molecules. […] 8. Detection; Luminescence; Viewlux plate reader […]
Records with an inconclusive call do not appear. Active and inactive are the calls of the source. The call rests on the fitted dose curve; in most records, active means well fitted cell-killing curve with a large enough effect; inconclusive means small, poorly fitted or top-dose-only effect; inactive means flat fitted curve, though single readings scatter.
Write down one outcome, taken from active, inactive

The examples below pair each entry with its known result.
Nc1ccn([C@H]2CS[C@@H](CO)O2)c(=O)n1 :: inactive
CC(C)(C)NC(=O)[C@@H]1C[C@@H]2CCCC[C@@H]2CN1C[C@@H](O)[C@H](Cc1ccccc1)NC(=O)[C@H](CC(N)=O)NC(=O)c1ccc2ccccc2n1 :: active
CC(O)CO (stereo not drawn) :: inactive
CCCCC/C=C\C/C=C\CCCCCCCC(=O)O :: inactive
CCOC(C)=O :: inactive

[in] State the result this test recorded for O=CCCCC=O .
[out] inactive

[in] State the result this test recorded for O=S(=O)(O)O .
[out] inactive

[in] State the result this test recorded for IC(I)I .
[out] inactive

* * *

- run_description: P-glycoprotein substrates identified in KB-8-5-11 adenocarcinoma cell line, qHTS therapeutic library screen (AID 1346987); further: nearly all actives have a fitted effect of over 65% in size; on activity change, negative = cytotoxicity: on the % scale 0 is the no-effect control and ±100 the full control effect
- condition_context: KB-8-5-11 (P-gp overexpressing) viability, CellTiter-Glo, 72 h; series mostly up to 44.5 µM
Results filed as inconclusive are left out. Calls of active or inactive are those of the source. Calls come from the whole dose curve; as a rule, active = well fitted inhibition curve with a large enough effect; inconclusive = small, poorly fitted or top-dose-only effect; inactive = flat fitted curve, though single readings scatter.
reported_endpoint: activity change, negative = cytotoxicity

C[C@H]1[C@H](C)CC[C@]2(C(=O)O)CC[C@]3(C)C(=CC[C@@H]4[C@@]5(C)C[C@@H](O)[C@H](O)[C@@](C)(CO)[C@@H]5CC[C@]43C)[C@H]12 :: inactive
COc1cc(-c2cccc(O)c2)cc2c1OCO2 :: inactive
C=CC(C)(O)CC/C=C(/C)C(=O)OC1C(OC2OCC(OC3OC(CO)C(O)C(O)C3O)C(OC3OCC(O)C(OC4OC(C)C(O)C(O)C4O)C3O)C2O)COC(OC(=O)C23CCC(C)(C)CC2C2=CCC4C5(C)CCC(OC6OC(CO)C(OC7OC(CO)C(O)C(OC8OCC(O)C(O)C8O)C7O)C(O)C6O)C(C)(C)C5CCC4(C)C2(C)CC3O)C1O (stereo unspecified) :: -0.997% [at 5.11 µM] (inactive)
CCCC1=CC2=C(CO1)C(=O)C(C)(OC(=O)c1c(C)cc(OC)cc1O)C(O)C2 (stereo unspecified) :: inactive
COc1cc(/C=C/C(=O)O[C@H]2[C@H](O)[C@@H](CO)O[C@@]2(CO)O[C@H]2O[C@H](COC(=O)c3ccc(O)cc3)[C@@H](O)[C@H](O)[C@H]2O)cc(OC)c1OC :: inactive

[in] Return reported activity change, negative = cytotoxicity. Input compound: CC[C@@H](c1ccc(F)c(F)c1)n1c(C(=O)OC)c(-c2ccno2)[nH]c1=S
[out] inactive

* * *

- run_description: Identifying Small Molecule Inhibitors of Pancreatic Cancer Stem Cells (SN12C, Adherent) (AID 1259358);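 further: cell survival measured after 48 h of compound exposure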; further: potency means the concentration at half of the fitted maximal effect
- condition_context: viability/growth inhibition; series mostly up to 46.1 µM
- From the text: Progenitor-like cancer cells, often referred to as cancer stem cells (CSC), are believed to be the drivers of therapeutic resistance and rapid recurrence. CSCs are postulated to reside in specific niches characterized by low oxygen tension, limited nutrient supply, and high redox load. Selectively targeting CSC, alone or in combination with cytotoxic agents, as a means to produce durable remissions is an appealing concept. […]
Inconclusive results are not listed. Calls of active or inactive are those of the source. Calls come from the whole dose curve; as a rule, active = well fitted cell-killing curve with a large enough effect; inconclusive = small, poorly fitted or top-dose-only effect; inactive = flat fitted curve, though single readings scatter.
reported_endpoint: Potency

CCC1(O)CC2CN(CCc3c([nH]c4ccccc34)[C@@](C(=O)OC)(c3cc4c(cc3OC)N(C=O)[C@H]3[C@](O)(C(=O)OC)[C@H](OC(C)=O)[C@]5(CC)C=CCN6CC[C@]43[C@@H]65)C2)C1 (some centres undefined) :: 1.18 µM (active)
CNC1CCN(C(Cc2cccc(-c3ccncc3)c2)C(=O)c2sc3c(F)ccc(F)c3c2Cl)CC1 (centres undefined) :: 26.4 µM (active)
CCCCCCCCCCCCCCCCCCOP(=O)([O-])OC1CC[N+](C)(C)CC1 :: inactive
O=c1cc(C2=CC=CC3Sc4ccccc4SC23)oc(N2CCOCC2)c1 (centres undefined) :: inactive
